Molecular target: Human TREM2 (Homo sapiens)
Construct: expressed in transfected cells
Test: Human TREM2 activity: cellular phosphorylation of Syk (AlphaLISA SureFire Ultra p-SYK) in HEK293/DAP12+TREM2 stable cell line
Type: cell-based
Conditions: HEK293; maximal response relative to reference agonist example 1B (remaining examples); read-out: Emax
PROPERTY_MEASURED: Emax

In [3]: df
Out[3]:
                                   compound    measured
0  Cc1nc2c(-c3ccc(C(F)(F)F)cc3F)nc([C@@H]3CCO[C@H](c4cnn(C)c4)C3)nc2c(=O)n1C (single isomer, unassigned)  75 to 110%
1  Cc1nc2c(-c3ccc(Cl)cc3F)nc(N3CCOC(c4cn(C)nn4)C3)nc2c(=O)n1C (stereo not drawn)  75 to 110%
2  Cc1cc([C@H]2CN(c3nc(-c4ccc(F)cc4F)c4nc(C)n(C)c(=O)c4n3)C[C@@H](C)O2)ccn1 (single isomer, unassigned) [Example 175B]  75 to 110%

---

Target: Human TREM2 (Homo sapiens, UniProt Q9NZC2)
Construct: expressed in transfected cells
Sequence (Q9NZC2 19-230): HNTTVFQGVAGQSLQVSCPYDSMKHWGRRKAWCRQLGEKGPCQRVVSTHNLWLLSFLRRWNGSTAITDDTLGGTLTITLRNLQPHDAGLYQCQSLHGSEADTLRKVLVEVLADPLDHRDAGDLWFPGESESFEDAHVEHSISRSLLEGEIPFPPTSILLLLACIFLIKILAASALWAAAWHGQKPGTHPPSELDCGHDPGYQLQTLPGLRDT
Sequence (O43914 22-113 partner): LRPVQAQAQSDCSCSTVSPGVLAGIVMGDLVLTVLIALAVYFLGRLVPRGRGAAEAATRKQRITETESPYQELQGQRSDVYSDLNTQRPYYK
Test: Human TREM2 activity: cellular phosphorylation of Syk (AlphaLISA SureFire Ultra p-SYK) in HEK293/DAP12+TREM2 stable cell line
Type: cell-based
Details: phospho-Syk AlphaLISA signal, HEK293/DAP12+TREM2 cells; concentration giving 50% of maximal response; read-out: EC50
List of EC50 values.

MOLECULE	EC50
Cc1nc2c(-c3ccc(Cl)cc3F)nc(N3CCOC(C)(c4cnn(C)c4)C3)nc2c(=O)n1C (stereo not drawn) [Example 55]	> 1000 nM
Cc1nc2c(-c3ccc(Cl)cc3F)nc(N3C[C@@H](c4cnn(C5CC5)c4)OC(C)(C)C3)nc2c(=O)n1C (single isomer, unassigned) [Example 110A]	1 to 10 nM
Cc1nc2c(-c3ccc(Cl)cc3F)nc(N3CCOC(c4cn(C)nn4)C3)nc2c(=O)n1C (stereo not drawn) [Example 73]	100 to 1000 nM
Cc1nc2c(-c3ccc(C(F)(F)F)nc3)nc([C@@H]3CCO[C@H](c4cnn(C)c4)C3)nc2c(=O)n1C (single isomer, unassigned) [Example 88A]	> 1000 nM
Cc1nc2c(-c3ccc(Cl)cc3F)nc(N3CCC[C@@H](Oc4cnn(C)c4)C3)nc2c(=O)n1C [Example 76]	100 to 1000 nM
Cc1cc([C@@H]2CN(c3cc4c(=O)n(C)c(C)nc4c(-c4ccc(F)cc4F)n3)C[C@H](C)O2)ccn1 (single isomer, unassigned) [Example 182A]	1 to 10 nM
Cc1nc2c(-c3ccc(C(F)(F)F)cc3F)nc(N3C[C@H](c4cnn(C)c4)OC4(CC4)C3)cc2c(=O)n1C (single isomer, unassigned) [Example 145B]	10 to 100 nM
Cc1nc2c(-c3ccc(Cl)cc3F)nc(N3C[C@@H](C)O[C@@H](c4cnn(C5CC5)c4)C3)nc2c(=O)n1C (single isomer, unassigned) [Example 178B]	1 to 10 nM
Cc1nc2c(-c3ccc(C(F)(F)F)cc3F)nc(N3CCO[C@H](c4cnn(C5CC5)c4)C3)nc2c(=O)n1C (single isomer, unassigned) [Example 20A]	10 to 100 nM
Cc1nc2c(-c3ccc(Cl)cc3F)nc(N3C[C@@H](c4cnn(C)c4)OC(F)(F)C3)nc2c(=O)n1C (single isomer, unassigned) [Example 149A]	< 1 nM
Cc1cc([C@H]2CN(c3nc(-c4ccc(C(F)(F)F)nc4)c4nc(C)n(C)c(=O)c4n3)CCO2)ccn1 (single isomer, unassigned) [Example 22B]	1 to 10 nM
Cc1nc2c(-c3ccc(Cl)cc3F)nc(N3CCOC(C)(C)C3)nc2c(=O)n1C [Example 57]	> 1000 nM
Cc1nc2c(-c3ccc(Cl)cc3F)nc(N3CCC(c4cnn(C)c4)C3)nc2c(=O)n1C (stereo not drawn) [Example 63]	10 to 100 nM
Cc1cc([C@H]2CN(c3cc4c(=O)n(C)c(C)nc4c(-c4cc(F)c(F)cc4F)n3)CC(C)(C)O2)ccn1 (single isomer, unassigned) [Example 160B]	100 to 1000 nM
Cc1cc([C@H]2CN(c3cc4c(=O)n(C)c(C)nc4c(-c4ccc(C(F)(F)F)cc4F)n3)CCO2)ccn1 (single isomer, unassigned) [Example 137B]	100 to 1000 nM
Cn1cc([C@H]2CN(c3nc(-c4ccc(F)cc4F)c4nc(C(F)(F)F)n(C)c(=O)c4n3)CC3(CC3)O2)cn1 (single isomer, unassigned) [Example 165B]	10 to 100 nM
Cc1nc2c(-c3ccc(Cl)cc3F)nc([C@@H]3C[C@@H]3c3cnn(C)c3)cc2c(=O)n1C (single isomer, unassigned) [Example 148A]	> 1000 nM
Cc1nc2c(-c3ccc(F)cc3F)nc(N3C[C@@H](C)O[C@@H](c4cnn(C5CC5)c4)C3)cc2c(=O)n1C (single isomer, unassigned) [Example 190B]	100 to 1000 nM
Cn1cc(C2CN(c3nc(-c4ccc(F)cc4F)c4nc(C(F)(F)F)n(C)c(=O)c4c3F)CC3(CC3)O2)cn1 (stereo not drawn) [Example 158]	100 to 1000 nM
Cc1cc([C@H]2CN(c3nc(-c4ccc(C(F)(F)F)nc4)c4nc(C)n(C)c(=O)c4n3)CC(C)(C)O2)ccn1 (single isomer, unassigned) [Example 164B]	1 to 10 nM
COCC1CN(c2nc(-c3ccc(Cl)cc3F)c3nc(C)n(C)c(=O)c3n2)CCO1 (stereo not drawn) [Example 52]	100 to 1000 nM
Cc1nc2c(-c3ccc(C(F)(F)F)nc3)nc(N3CCO[C@H](c4cnn(C)c4)C3)nc2c(=O)n1C (single isomer, unassigned) [Example 28A]	> 1000 nM
Cn1cc([C@@H]2CN(c3nc(-c4cc(F)c(F)cc4F)c4nc(C(F)(F)F)n(C)c(=O)c4n3)CC3(CC3)O2)cn1 (single isomer, unassigned) [Example 162A]	1 to 10 nM
Cc1nc2c(-c3ccc(Cl)cc3F)nc(N3CCO[C@@H](c4cnn(C)c4)C3)nc2c(=O)n1C (single isomer, unassigned) [Example 1B]	10 to 100 nM
